Experimental Target: Glutamate receptor ionotropic, NMDA 1 (Rattus norvegicus)
Method Summary: Binding affinity towards N-methyl-D-aspartate glutamate receptor 1 in rat cortical membranes using [3H]glycine as radioligand
Assay type: cell membranes
Result Type: Ki (nM)

Worked cases, Ki given:
• O=C(Nc1nn[nH]n1)c1nc2c(O)nc3cc(Cl)ccc3n2n1 = 5100
• O=C(O)c1nc2c(=O)[nH]c3cc([N+](=O)[O-])ccc3n2n1 = 710
• CCOC(=O)c1nc2c(O)nc3cc(Cl)c(Cl)cc3n2n1 = 710
• CCOC(=O)c1nc2c(O)nc3cc(Cl)ccc3n2n1 = 3000

(A) O=C(O)c1nc2c(O)nc3c([N+](=O)[O-])cc(Cl)cc3n2n1
(B) O=C(O)c1nc2c(O)nc3cc(Cl)c([N+](=O)[O-])cc3n2n1
Could you determine which record has the numerically smaller Ki? Candidates: A and B Write down the label attached to your selection.
B
